- system: Fuc(a1-2)Gal(b1-3)GlcNAc
- assay_name: glycan array binding signal (z-score within array); higher = stronger binding
- experimental_conditions: glycan notation: IUPAC condensed, linker removed
Many of the other results were omitted from the sample, so the strongest signals are more common in it than they were.
assay_endpoint: glycan array binding signal (z-score)
# output: bare number, no unit

binder	glycan array binding signal (z-score)
RfpB (Mycobacterium tuberculosum), O05594 (protein) MAAGLVTASMSLSTAVAHAGPSPNWDAVAQCESGGNWAANTGNGKYGGLQFKPATWAAFGGVGNPAAASREQQIAVANRVLAEQGLDAWPTCGAASGLPIALWSKPAQGIKHAGPSPNWDAVAQCESGGNWAANTGNGKYGGLQFKPATWAAFGGVGNPAAASREQQIAVANRVLAEQGLDAWPTCGA	0.352
Fap1 (Streptococcus parasanguis) (protein) KATSKGTEEKQDSVRENLDKMISEAEVLNDMAARKLITLDAEQQLELMKSLVATQSQLEATKNLIGDPNATVADLQIAYTTLGNNTQALGNELIKLNPNGQIYAVLNNTEASRAATLRSTTTGTKTTFTISDFSNGGTQYYWAGGNANNLKNPISSISAVYDSATGKISWTVEYDPTTILKSPALKTLKTYTGIYIDTSSDSKLSTPTNVLIDGAATNPVTNFYGNGSKGIEYVSKGTTKGVTKHTITFDTAFSGRANDLADLEIKMLAATTLSDPHFYEDGSKGNYGRYNGQTAPYVIANDSGTAIGGYQVSGVNADSIPSDTT	0.203

So, Vd2LysM (Verticillium dahliae) (protein) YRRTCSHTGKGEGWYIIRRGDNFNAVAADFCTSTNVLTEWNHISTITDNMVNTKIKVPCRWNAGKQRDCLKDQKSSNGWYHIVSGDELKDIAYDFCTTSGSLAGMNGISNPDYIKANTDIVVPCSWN ? Its glycan array binding signal (z-score) was 0.299
